# Species on record: Mus musculus
# test details: Selectivity ratio of IC50 for mouse COX1 to IC50 for mouse COX2
property label: Ratio IC50

>>> print(df.to_string())
                           substance_smiles  measured_result
0  CCOC(=O)Cc1cc(-c2ccc(F)cc2)n(-c2ccc(S(C)(=O)=O)cc2)c1C            > 250
1  CCOC(=O)C(=O)c1cc(-c2ccc(S(C)(=O)=O)cc2)n(-c2ccc(OC)cc2)c1C            > 100
2  CCOC(=O)Cc1cc(-c2ccc(C)cc2)n(-c2ccc(S(C)(=O)=O)cc2)c1C             > 50
3  CCOC(=O)Cc1cc(-c2ccc(OC)cc2)n(-c2ccc(S(C)(=O)=O)cc2)c1C            > 200
4  CCOC(=O)Cc1cc(-c2ccc(S(C)(=O)=O)cc2)n(-c2ccc(F)cc2)c1C          > 10000
